- Tested on: T. cruzi trypomastigotes
- measurement_notes: Anti-trypanosomal bioassay, T. cruzi Tulahuen clone C4 expressing β-galactosidase
- Assay type: cell-based, Trypanosoma cruzi
- study_conditions: monkey (Vero host cells); Trypanosoma cruzi (parasite); read-out: Selectivity (CC50/EC50)
reported_endpoint: selectivity ratio

1. CC(=O)O[C@H]1C[C@]2(O)[C@@H]3CC[C@@H]4C[C@@H](O)CC[C@]4(C)[C@H]3CC[C@]2(C)[C@H]1c1ccc(=O)oc1 : > 2
2. CCC(=O)OC1C(c2ccc(=O)oc2)C2(C)CCC3C(CCC4(O)CC(O)CCC34C)C23OC13 (stereo not drawn) : < 0.01
3. CC12CCC3C(CCC4(O)CC(O)CCC34C=O)C1(O)CC(O)C2c1ccc(=O)oc1 (stereo not drawn) [Compound 1, 16β-hydroxyl-hellebrigenin] : > 5
